# Test system: supra maximal electroshock (extensor tonus)
# assay procedure: supra maximal electroshock assay (anticonvulsant)
# Type: in vivo, male mice (Charles River, CD-1)
# setup conditions: Mus musculus, ip; intraperitoneal, 50.0 mg/kg; read-out: % Inhibition (anticonvulsant effect)
assay endpoint: inhibition in vivo at 50 mg/kg (%)
Field format: number, assumed %, no unit text.

Solved entries:
# compound, unit of measure, inhibition in vivo at 50 mg/kg
measured = [
    ("CN(C)CCCN1Cc2ccccc2C(Oc2ccc(Cl)cc2)C1 (stereo not shown) [dimaleate]", "%", 100),
    ("CN1Cc2ccccc2C(Oc2cccc(C(F)(F)F)c2)C1.O=C(O)/C=C\\C(=O)O (stereo not shown) [maleate]", "%", 67),
]

Data point: CN1Cc2ccccc2C(Oc2ccc(C(F)(F)F)cc2)C1 (stereo not shown) [oxalate] ; inhibition in vivo at 50 mg/kg = 50

Data point: CN(C)CCCN1Cc2ccccc2C(Oc2cccc(C(F)(F)F)c2)C1.O=C(O)/C=C\C(=O)O.O=C(O)/C=C\C(=O)O (stereo not shown) [dimaleate] ; inhibition in vivo at 50 mg/kg = 100
